Where do the numbers come from? From ChEMBL document CHEMBL1208782.

- system_under_test: Estrogen receptor beta (Homo sapiens)
- Sequence (Q92731 whole entry, the tested form may be a part): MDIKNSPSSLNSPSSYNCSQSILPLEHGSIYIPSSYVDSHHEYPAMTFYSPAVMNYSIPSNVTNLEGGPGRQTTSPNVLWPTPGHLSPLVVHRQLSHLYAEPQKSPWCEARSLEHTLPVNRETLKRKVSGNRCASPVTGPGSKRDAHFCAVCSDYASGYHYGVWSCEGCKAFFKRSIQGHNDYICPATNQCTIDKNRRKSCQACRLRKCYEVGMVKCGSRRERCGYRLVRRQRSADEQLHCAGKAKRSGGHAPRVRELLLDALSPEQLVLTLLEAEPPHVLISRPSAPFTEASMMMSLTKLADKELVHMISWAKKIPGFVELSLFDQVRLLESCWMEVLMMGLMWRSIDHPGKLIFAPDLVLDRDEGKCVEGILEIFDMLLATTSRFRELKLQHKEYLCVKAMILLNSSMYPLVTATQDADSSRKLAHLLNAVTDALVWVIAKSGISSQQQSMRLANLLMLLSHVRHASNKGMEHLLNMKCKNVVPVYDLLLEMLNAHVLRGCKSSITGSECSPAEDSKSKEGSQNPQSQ
- assay_remarks: Agonist activity at ERbeta-LBD expressed in HEK293 cells assessed as Gal4-DBD interaction by cellular mammalian one hybrid assay
pEC50: −log10 of the molar value.
Here, each record is paired with measured pEC50 data.

[
  {
    "structure_notation": "CN(Cc1ccc(C(=O)O)cc1)c1ccc(OCc2c(-c3c(Cl)cccc3Cl)noc2C2CC2)nc1C(F)(F)F",
    "pEC50": "< 5.00"
  }
]

Now examine the next entry.
Enquiry: Record request: pEC50 value, item `CC(C)c1onc(-c2c(Cl)cccc2Cl)c1COc1ccc(N(C)Cc2ccc(C(=O)O)cc2)c(C(F)(F)F)n1`
Return: < 5.00
